SYSTEM: Te_PtxB (Trichodesmium erythraeum)
Sequence (Q119I9 28-298 limits assumed): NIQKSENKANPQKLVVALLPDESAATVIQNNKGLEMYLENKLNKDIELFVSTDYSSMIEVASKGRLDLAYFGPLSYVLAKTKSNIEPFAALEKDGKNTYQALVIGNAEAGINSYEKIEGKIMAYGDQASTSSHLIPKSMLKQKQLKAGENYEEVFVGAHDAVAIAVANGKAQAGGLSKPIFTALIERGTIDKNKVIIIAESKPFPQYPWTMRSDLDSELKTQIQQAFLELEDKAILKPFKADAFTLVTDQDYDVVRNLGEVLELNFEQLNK
MEASUREMENT DESCRIPTION: biochemical
QUANTITY: Kd (nM)

{"columns": ["COMPOUND", "RECORDED MEASUREMENT"],
 "data": [
  ["O=[PH](O)O [Phosphite, phosphite]", 289]
]}

###

SYSTEM: Te_PtxB Y208F (Trichodesmium erythraeum, UniProt Q119I9, Y234F)
Sequence (Q119I9 28-298 Y234F limits assumed): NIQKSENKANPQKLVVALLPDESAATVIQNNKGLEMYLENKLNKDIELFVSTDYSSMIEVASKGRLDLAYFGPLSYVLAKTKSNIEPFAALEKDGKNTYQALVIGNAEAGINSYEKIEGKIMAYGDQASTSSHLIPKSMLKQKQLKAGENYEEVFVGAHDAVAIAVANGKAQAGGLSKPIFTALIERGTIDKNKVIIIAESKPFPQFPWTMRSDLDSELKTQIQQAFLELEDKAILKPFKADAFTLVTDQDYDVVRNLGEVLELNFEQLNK
MEASUREMENT DESCRIPTION: biochemical
COND: K d, Te_PtxB Y208F
pKd: −log10 of the molar value.

{"columns": ["RECORD SMILES", "pKd"],
 "data": [
  ["O=[PH](O)O", 3.53]
]}
